- Test system: Aspergillus fumigatus
- measurement-protocol: Potency index, ratio of sulfisoxazole MIC to compound MIC for Aspergillus fumigatus assessed as inhibition of DHPS-mediated fungal growth incubated for 48 hrs by microbroth dilution method
Hi there, I'd appreciate the recorded Ratio for every entry that follows.

Completed entries (count: 2):
C=CCN/C(S[C@@H]1O[C@H](COC(C)=O)[C@@H](OC(C)=O)[C@H](OC(C)=O)[C@H]1OC(C)=O)=C(/C#N)C(=O)Nc1ccc(S(=O)(=O)Nc2onc(C)c2C)cc1    4 to 6
CCN/C(S[C@@H]1O[C@H](COC(C)=O)[C@@H](OC(C)=O)[C@H](OC(C)=O)[C@H]1OC(C)=O)=C(/C#N)C(=O)Nc1ccc(S(=O)(=O)Nc2onc(C)c2C)cc1    4 to 6

Provide Ratio for all items below, preserving their order.
1. CCN/C(S[C@@H]1O[C@H](COC(C)=O)[C@H](OC(C)=O)[C@H](OC(C)=O)[C@H]1OC(C)=O)=C(/C#N)C(=O)Nc1ccc(S(=O)(=O)Nc2onc(C)c2C)cc1
2. CN/C(S[C@@H]1O[C@H](COC(C)=O)[C@H](OC(C)=O)[C@H](OC(C)=O)[C@H]1OC(C)=O)=C(/C#N)C(=O)Nc1ccc(S(=O)(=O)Nc2onc(C)c2C)cc1
3. CN/C(S[C@@H]1O[C@H](COC(C)=O)[C@@H](OC(C)=O)[C@H](OC(C)=O)[C@H]1OC(C)=O)=C(/C#N)C(=O)Nc1ccc(S(=O)(=O)Nc2onc(C)c2C)cc1
4. C=CCN/C(S)=C(/C#N)C(=O)Nc1ccc(S(=O)(=O)Nc2onc(C)c2C)cc1
5. CN/C(S)=C(/C#N)C(=O)Nc1ccc(S(=O)(=O)Nc2onc(C)c2C)cc1
6. Cc1noc(NS(=O)(=O)c2ccc(NC(=O)/C(C#N)=C(/S)Nc3ccccc3)cc2)c1C

Found:
1: 1 to 3; 2: 1 to 3; 3: 4 to 6; 4: 7; 5: 4; 6: 2

Reported Ratio ( C=CCN/C(S[C@@H]1O[C@H](COC(C)=O)[C@H](OC(C)=O)[C@H](OC(C)=O)[C@H]1OC(C)=O)=C(/C#N)C(=O)Nc1ccc(S(=O)(=O)Nc2onc(C)c2C)cc1 ) = 1 to 3

* * *

- Test system: Syncephalastrum racemosum
- measurement-protocol: Inhibition of DHPS in Syncephalastrum racemosum assessed as antifungal activity by measuring inhibition of fungal growth incubated for 48 hrs by microbroth dilution method
Kindly state MIC for each of the entries shown.
Answers are plain numbers, in µg/mL.

Use these answered entries as a reference point.
C=CCN/C(S)=C(/C#N)C(=O)Nc1ccc(S(=O)(=O)Nc2onc(C)c2C)cc1    3.9
CN/C(S)=C(/C#N)C(=O)Nc1ccc(S(=O)(=O)Nc2onc(C)c2C)cc1    15.6
CCN/C(S[C@@H]1O[C@H](COC(C)=O)[C@@H](OC(C)=O)[C@H](OC(C)=O)[C@H]1OC(C)=O)=C(/C#N)C(=O)Nc1ccc(S(=O)(=O)Nc2onc(C)c2C)cc1    15.6

Consider the following items and state reported MIC for each.
1. C=CCN/C(SC)=C(/C#N)C(=O)Nc1ccc(S(=O)(=O)Nc2onc(C)c2C)cc1
2. CCS/C(NC)=C(\C#N)C(=O)Nc1ccc(S(=O)(=O)Nc2onc(C)c2C)cc1

Found:
1: 62.5; 2: 3.9

* * *

Field: MIC. Provide a value for each of the molecules that follow.
- Test system: Syncephalastrum racemosum
- measurement-protocol: Inhibition of DHPS in Syncephalastrum racemosum assessed as antifungal activity by measuring inhibition of fungal growth incubated for 48 hrs by microbroth dilution method
One number for each entry, in µg/mL.

Below: 3 molecules and their reported MIC.
CN/C(S[C@@H]1O[C@H](COC(C)=O)[C@@H](OC(C)=O)[C@H](OC(C)=O)[C@H]1OC(C)=O)=C(/C#N)C(=O)Nc1ccc(S(=O)(=O)Nc2onc(C)c2C)cc1    3.9
CN/C(S[C@@H]1O[C@H](COC(C)=O)[C@H](OC(C)=O)[C@H](OC(C)=O)[C@H]1OC(C)=O)=C(/C#N)C(=O)Nc1ccc(S(=O)(=O)Nc2onc(C)c2C)cc1    62.5
C[C@@H]1[C@H](O)[C@@H](C)/C=C/C=C/C=C/C=C/C=C/C=C/C=C/[C@H](O[C@@H]2O[C@H](C)[C@@H](O)[C@H](N)[C@@H]2O)C[C@@H]2O[C@](O)(C[C@@H](O)C[C@@H](O)[C@H](O)CC[C@@H](O)C[C@@H](O)CC(=O)O[C@H]1C)C[C@H](O)[C@H]2C(=O)O    7.81

Briefly, MIC measured for CCN/C(S)=C(/C#N)C(=O)Nc1ccc(S(=O)(=O)Nc2onc(C)c2C)cc1 : 7.81

* * *

- Test system: Bacillus subtilis
- measurement-protocol: Inhibition of DHPS in Bacillus subtilis assessed as antibacterial activity by measuring inhibition of bacterial growth incubated for 24 hrs by microbroth dilution method
# strict inequality: MIC < 2 µg/mL yields yes, everything else yields no

Lookup: Determine if CN/C(S[C@@H]1O[C@H](COC(C)=O)[C@H](OC(C)=O)[C@H](OC(C)=O)[C@H]1OC(C)=O)=C(/C#N)C(=O)Nc1ccc(S(=O)(=O)Nc2onc(C)c2C)cc1 shows MIC strictly lower than 2 µg/mL.
Found: no

Lookup: Threshold test, MIC < 2 µg/mL: CN/C(S)=C(/C#N)C(=O)Nc1ccc(S(=O)(=O)Nc2onc(C)c2C)cc1
Found: yes

Lookup: Determine whether this molecule shows MIC lower than 2 µg/mL (ties excluded): CC1(C)S[C@@H]2[C@H](NC(=O)[C@H](N)c3ccccc3)C(=O)N2[C@H]1C(=O)O
Found: yes

Lookup: Input CCN/C(SCC)=C(/C#N)C(=O)Nc1ccc(S(=O)(=O)Nc2onc(C)c2C)cc1 ; condition: MIC strictly below 2 µg/mL. Does it hold?
Found: yes

Lookup: Please indicate whether the reported MIC of Cc1noc(NS(=O)(=O)c2ccc(NC(=O)/C(C#N)=C(/S)NC34CC5CC(CC(C5)C3)C4)cc2)c1C is strictly below 2 µg/mL.
Found: no

Lookup: API: query returns whether the molecule falls strictly under 2 µg/mL in MIC. Query: C=CCN/C(SCC)=C(/C#N)C(=O)Nc1ccc(S(=O)(=O)Nc2onc(C)c2C)cc1
Found: yes

Lookup: Please let me know if CN/C(S[C@@H]1O[C@H](COC(C)=O)[C@@H](OC(C)=O)[C@H](OC(C)=O)[C@H]1OC(C)=O)=C(/C#N)C(=O)Nc1ccc(S(=O)(=O)Nc2onc(C)c2C)cc1 shows MIC below 2 µg/mL.
Found: yes

Lookup: Dear reviewer, please state whether CCS/C(NC)=C(\C#N)C(=O)Nc1ccc(S(=O)(=O)Nc2onc(C)c2C)cc1 has MIC strictly beneath 2 µg/mL.
Found: yes

Lookup: Determine whether this molecule shows MIC lower than 2 µg/mL (ties excluded): CCN/C(S)=C(/C#N)C(=O)Nc1ccc(S(=O)(=O)Nc2onc(C)c2C)cc1
Found: no

Lookup: Is 2 µg/mL strictly greater than the molecule's reported MIC? molecule: CCN/C(S[C@@H]1O[C@H](COC(C)=O)[C@H](OC(C)=O)[C@H](OC(C)=O)[C@H]1OC(C)=O)=C(/C#N)C(=O)Nc1ccc(S(=O)(=O)Nc2onc(C)c2C)cc1
Found: no

Lookup: Check if MIC falls below 2 µg/mL for C=CCN/C(S)=C(/C#N)C(=O)Nc1ccc(S(=O)(=O)Nc2onc(C)c2C)cc1 .
Found: yes

* * *

- Tested on: Geotrichum candidum
- measurement-protocol: Inhibition of DHPS in Geotrichum candidum assessed as antifungal activity by measuring inhibition zone at 5 mg/mL incubated for 48 hrs by disk diffusion method
The source made the active and inactive calls. The rule behind the calls is not given here.
measured-property: inhibition zone (IZ)

Solved cases below.
Cc1noc(NS(=O)(=O)c2ccc(N)cc2)c1C    16.8 mm
CCS/C(NC12CC3CC(CC(C3)C1)C2)=C(\C#N)C(=O)Nc1ccc(S(=O)(=O)Nc2onc(C)c2C)cc1    inactive
Cc1noc(NS(=O)(=O)c2ccc(NC(=O)c3c(N)n[nH]c3Nc3ccccc3)cc2)c1C    inactive
C=CCN/C(SC)=C(/C#N)C(=O)Nc1ccc(S(=O)(=O)Nc2onc(C)c2C)cc1    18.2 mm

# return inhibition zone (IZ) for each item in the list
1. CCN/C(SCC)=C(/C#N)C(=O)Nc1ccc(S(=O)(=O)Nc2onc(C)c2C)cc1
2. C=CCN/C(S)=C(/C#N)C(=O)Nc1ccc(S(=O)(=O)Nc2onc(C)c2C)cc1
3. CC(=O)OC[C@H]1O[C@@H](S/C(Nc2ccccc2)=C(\C#N)C(=O)Nc2ccc(S(=O)(=O)Nc3onc(C)c3C)cc2)[C@H](OC(C)=O)[C@@H](OC(C)=O)[C@@H]1OC(C)=O
4. CC(=O)OC[C@H]1O[C@@H](S/C(Nc2ccccc2)=C(\C#N)C(=O)Nc2ccc(S(=O)(=O)Nc3onc(C)c3C)cc2)[C@H](OC(C)=O)[C@@H](OC(C)=O)[C@H]1OC(C)=O

Found:
20.4 mm
25.2 mm
inactive
inactive
